TARGET: HLA-A*0201 (Homo sapiens, UniProt P04439, D140Y/D185E/D98H/E176V/E277Q/G131W/G231S/I119V/I121R/I166T/I218V/L300P/L318F/N151K/N90K/P208A/P217A/Q86G/Q94H/R138H/R169H/T345S)
ASSAY EXPLANATION: iTOPIA EDS MHC peptide binding assay
EXPERIMENTAL CONTEXT: HLA-A*0201 monomer, relative to positive control peptide, 21° C. for 18 h
Residues, ends and D or L forms follow the SMILES beside them.
Can you tell me % Binding for the items I'm about to list?
Please give a number only; it is taken to be in %.

Exam item: Please list % Binding recorded for the molecule CC(C)C[C@H](NC(=O)[C@H](Cc1c[nH]cn1)NC(=O)[C@H](Cc1ccccc1)NC(=O)[C@H](CCC(=O)O)NC(=O)[C@H](CO)NC(=O)[C@@H](NC(=O)[C@@H](NC(=O)[C@H](C)N)C(C)C)[C@@H](C)O)C(=O)N[C@H](C(=O)O)C(C)C [Peptide 203] (H-AVTSEFHLV-OH; N-terminus and C-terminus assumed)
Marked response: 64

Exam item: Entry CC(C)C[C@H](NC(=O)[C@@H](N)Cc1ccccc1)C(=O)N[C@@H](C)C(=O)N[C@@H](CCC(=O)O)C(=O)N[C@@H](C)C(=O)N[C@@H](CO)C(=O)N[C@H](C(=O)N[C@@H](CCCNC(=N)N)C(=O)NCC(=O)O)C(C)C [Peptide 244] (H-FLAEASVRG-OH; N-terminus and C-terminus assumed) needs its % Binding filled in; supply it.
Marked response: 78

Exam item: Quickly give me recorded % Binding for CC[C@H](C)[C@H](NC(=O)[C@@H](NC(=O)CN)C(C)C)C(=O)N[C@@H](C)C(=O)N[C@@H](C)C(=O)N[C@@H](CC(C)C)C(=O)N[C@@H](CC(C)C)C(=O)N[C@@H](Cc1ccccc1)C(=O)N[C@@H](CS)C(=O)O [Peptide 354] (H-GVIAALLFC-OH; N-terminus and C-terminus assumed)
Marked response: 61

Hey, just so you know, these numbers are from patent US9266922B2.
